# study.target: Trypsin from a hog pancreas (Sus scrofa)
# Sequence (P00761 9-231): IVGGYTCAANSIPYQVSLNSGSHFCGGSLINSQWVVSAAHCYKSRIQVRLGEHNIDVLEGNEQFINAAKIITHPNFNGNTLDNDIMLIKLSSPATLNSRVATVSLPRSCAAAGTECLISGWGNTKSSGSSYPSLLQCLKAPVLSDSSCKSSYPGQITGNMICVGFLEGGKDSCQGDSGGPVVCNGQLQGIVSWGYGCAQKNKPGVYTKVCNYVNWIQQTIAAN
measured.quantity: pIC50
// returns pIC50 (minus log10 of molar concentration), number only

Request: Find pIC50 (Trypsin from a hog pancreas (Sus scrofa)) for the entry CC(=O)N[C@@H](CC(C)C)C(=O)N[C@@H](CC(C)C)C(=O)N[C@H](C=O)CCCNC(=N)N [leupeptin, reference compound]
Result: 5.08

The measurements presented in this section are drawn from paper PMC11944477.
